System: Galium (catchweed bedstraw, Galium aparine)
Assay: Test A postemergence
Assay type: in vivo
Settings: 500 g ai/ha, postemergence; 0 to 100 scale, 0 no effect, 100 complete control
Excerpt: […]
met means recorded Plant response rating, Galium is 50 or above; not met means it is below 50.

compound: CN1CC(c2ccc(C(F)(F)F)cc2)C(C(=S)Nc2ccccc2F)C1=O (stereo not drawn) [Compound 450]
target.entity: Galium (catchweed bedstraw, Galium aparine)
class: met
//
compound: Cc1cc(NC(=O)C2C(=O)NCC2c2cccc(OC(F)F)c2)ccc1F (stereo not drawn) [Compound 424]
target.entity: Galium (catchweed bedstraw, Galium aparine)
class: not met
//
compound: Cc1ccc(C2CNC(=O)C2C(=O)Nc2cccc(F)c2F)cc1F (racemic) [Compound 369]
target.entity: Galium (catchweed bedstraw, Galium aparine)
class: met
//
compound: O=C1NCC(c2cccc(OCC(F)F)c2)C1C(=O)Nc1ccc(F)cc1F (stereo not drawn) [Compound 388]
target.entity: Galium (catchweed bedstraw, Galium aparine)
class: not met
//
compound: O=C(Nc1cccc(F)c1F)C1C(=O)N(c2ccccc2)CC1c1cccc(C(F)(F)F)c1 (stereo not drawn) [Compound 457]
target.entity: Galium (catchweed bedstraw, Galium aparine)
class: not met
//
compound: Cc1cc(NC(=O)C2C(=O)NCC2c2ccc(F)c(F)c2)ccc1F (stereo not drawn) [Compound 412]
target.entity: Galium (catchweed bedstraw, Galium aparine)
class: not met

----------
Test system: corn (Zea mays)
Assay: Test A postemergence
Assay type: in vivo
Settings: Zea mays, post-emergence, 240 h, Postemergence, 31 g ai/ha; visual injury after approx. 10 d; 0 to 100 scale, 0 no effect, 100 complete control
endpoint.name: Corn plant response rating (crop injury, 0 = no effect, 100 = complete kill) at 31 g/ha (%)

compound.structure.string: CN1C[C@H](c2cc(C(F)F)cs2)[C@@H](C(=O)Nc2cccc(F)c2C#N)C1=O
result.number: 0
--
compound.structure.string: CON1CC[C@H](c2cccc(C(F)(F)F)c2)[C@@H](C(=O)Nc2cccc(Cl)c2F)C1=O
result.number: 0
--
compound.structure.string: CSc1ccccc1NC(=O)[C@H]1C(=O)N(C)C[C@@H]1c1ccc(F)c(OC(C)C)c1
result.number: 0
--
compound.structure.string: CN1C[C@H](c2ccc(C(F)(F)F)nc2)[C@@](C)(C(=O)Nc2ccc(F)c(F)c2F)C1=O
result.number: 30
--
compound.structure.string: O=C1NC[C@H](c2ccc(C(F)(F)F)cn2)[C@H]1C(=O)Nc1ccc(F)c(F)c1F
result.number: 0
--
compound.structure.string: CN1C[C@H](c2ccc(Cl)cc2)[C@@H](C(=O)Nc2ccc(F)c(F)c2F)C1=O
result.number: 20
--
compound.structure.string: CN1C[C@H](c2ccc(C(F)F)cc2)[C@@H](C(=O)Nc2ccccc2F)C1=O
result.number: 20
--
compound.structure.string: COc1cccc([C@H]2CN(C)C(=O)[C@@H]2C(=O)Nc2cccc(F)c2F)c1
result.number: 0
--
compound.structure.string: CN1C[C@H](c2ccc3ncccc3c2)[C@@H](C(=O)Nc2cccc(F)c2F)C1=O
result.number: 0
--
compound.structure.string: C=C(C)c1ccc([C@H]2CN(C)C(=O)[C@@H]2C(=O)Nc2cccc(F)c2C)cc1
result.number: 0
--
compound.structure.string: COc1cccc([C@H]2CN(C)C(=O)[C@@H]2C(=O)Nc2ccc(F)c(F)c2F)c1
result.number: 0

Origin of measurements: patent US12077503B2
